Reported values of OD600 absorbance for individual entries
- test name: antibacterial activity against Escherichia coli – OD600, primary screen (AID 1053175)
- condition details: Escherichia coli growth, OD600, 23 h; active compounds read low
Out of some 330,000 compounds screened, about 700 (0.21%) were called active. The sample holds actives, similar compounds and a random draw of the others, so the mix is not that of the screen.
Simply state the number, no unit and no words.

The examples below pair each entry with its known result.
CCOC(=O)C1(CCOc2ccccc2)CCN(Cc2cc(OC)c(O)cc2Cl)CC1; 0.602
O=C(C=CNNC(=O)c1ccccc1)c1ccc(Br)cc1; 0.66
CC(=NNC(=O)C1CC1)c1ccc(NC(=O)c2ccc(Br)o2)cc1; 0.697
Cc1c(CN2CCC(CO)(CCOc3ccccc3)CC2)[nH]c2ccc(Cl)cc12; 0.527
O=C(NCC(F)(F)F)Nc1nnc(C(F)(F)F)s1; 0.494
CCN1C(Nc2ccccc2)=NCC1CC(C)C (configuration not stated); 0.698
COC(=O)c1cc(C(=O)NC(C)C2CC3CCC2C3)cc([N+](=O)[O-])c1 (configuration not stated); 0.52
COc1ccc(S(=O)(=O)ON=C2CCCc3ccccc32)cc1; 0.751

Attention now turns to another entry.
Entry O=[N+]([O-])c1ccc(C=NN2CCN(c3ccc(Cl)cc3)CC2)cc1 : reported OD600 absorbance = ?
0.805

###

- test name: antibacterial activity against Escherichia coli – OD600, primary screen (AID 1053175)
- condition details: Escherichia coli growth, OD600, 23 h; active compounds read low
Out of some 330,000 compounds screened, about 700 (0.21%) were called active. Only a selection was taken, and actives are over-represented in it overall.
Classify: T when OD600 absorbance is strictly less than 0.7; F when OD600 absorbance is not.

Reference set, count: 5
CC1CN(C(C)CO)C(=O)c2cc(NC(=O)Cn3cnnn3)ccc2OC1CN(C)Cc1ccc(Cl)c(Cl)c1 (stereo not drawn); F
Cc1ccc(NCC(=O)NN=Cc2ccc([N+](=O)[O-])o2)cc1; T
Cc1cc(C)nc(NN=Cc2ccccc2OCc2ccccc2)n1; T
COc1ccc(C(=O)ON=C2CCS(=O)(=O)c3sccc32)cc1; T
O=C(NN=C1CC(c2ccccc2)Oc2ccccc21)c1ccc(O)cc1 (stereo not drawn); T

Criterion: OD600 absorbance strictly below 0.7. Is it met by C=Cc1ccc(C2=CC(=O)CC(c3ccc(OC)cc3)C2)cc1 (stereo not drawn) ?
T

Same again, this time with CCn1c(/C=C/c2ccc([N+](=O)[O-])o2)nc2ccccc2c1=O
T

Now consider Cc1nn(-c2ccccc2)c(C)c1C=NNC(=O)c1cc(-c2cccs2)[nH]n1 .
T

Moving on to COC(=O)[C@]1(Cc2ccccc2)NC(c2ccc(-c3cc(C(C)=O)cs3)cc2)C2C(=O)N(C)C(=O)C21 (stereo partly drawn)
F

Further, for C/[N+]([O-])=C\c1ccc([N+](=O)[O-])o1 ?
T

###

- test name: antibacterial activity against Escherichia coli – OD600, primary screen (AID 1053175)
- condition details: Escherichia coli growth, OD600, 23 h; active compounds read low
Among all 330,000 compounds or so, about 700 (0.21%) were called active. The sample holds actives, similar compounds and a random draw of the others, so the mix is not that of the screen.
property measured: OD600 absorbance
// return a plain number; no unit text

Some solved cases for reference:
CC(C)(C)N1C(=O)C2C(c3ccc(Br)cc3)N3C(=O)N(c4ccccc4)C(=O)[C@@]3(Cc3ccccc3)C2C1=O (stereo not given in full); 0.71
COc1cc(NS(=O)(=O)c2ccc(NC(=O)c3ccc([N+](=O)[O-])cc3)cc2)ncn1; 0.659

// query OD600 absorbance value for entry CC(=O)NC(=S)Nc1ccc(NC(=S)NC(=O)c2ccc([N+](=O)[O-])cc2)cc1
0.699

And Cc1ccc(C)c(-c2cc(C(=O)NN=Cc3cccnc3)c3ccccc3n2)c1 ?
0.67

Next molecule up: O=C(NN=Cc1ccco1)c1cccs1
0.606
